Reported IC50, inhibition of CDC of Daudi cells, 1.66% human serum by item:
Molecular target: human C5 (human, UniProt P01031 19-1676)
Assay: cell-based or functional assay
Answer in nM, number only, no unit symbol.

Example binders with recorded IC50, inhibition of CDC of Daudi cells, 1.66% human serum:
| binder | obs value |
| --- | --- |
| H4H12167P (antibody, human IgG4, V domains shown, H4H: human IgG4 Fc with S108P hinge mutation) VH: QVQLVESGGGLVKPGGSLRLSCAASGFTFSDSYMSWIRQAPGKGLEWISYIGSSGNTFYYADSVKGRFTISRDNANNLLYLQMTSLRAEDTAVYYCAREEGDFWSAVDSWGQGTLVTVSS VL: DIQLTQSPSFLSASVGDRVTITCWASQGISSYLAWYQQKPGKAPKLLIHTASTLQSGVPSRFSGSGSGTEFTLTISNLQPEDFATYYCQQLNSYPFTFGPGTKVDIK | 2.5 |
| H4H12170P (antibody, human IgG4, V domains shown, H4H: human IgG4 Fc with S108P hinge mutation) VH: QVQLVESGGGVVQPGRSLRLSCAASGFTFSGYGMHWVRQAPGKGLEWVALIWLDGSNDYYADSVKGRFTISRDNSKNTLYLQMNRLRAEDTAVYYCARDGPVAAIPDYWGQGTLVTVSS VL: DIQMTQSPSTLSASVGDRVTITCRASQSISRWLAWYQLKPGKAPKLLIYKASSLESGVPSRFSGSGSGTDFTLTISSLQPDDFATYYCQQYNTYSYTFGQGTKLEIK | 2 |

Below: the item to evaluate.
[Q] Item H4H12168P (antibody, human IgG4, V domains shown, H4H: human IgG4 Fc with S108P hinge mutation) VH: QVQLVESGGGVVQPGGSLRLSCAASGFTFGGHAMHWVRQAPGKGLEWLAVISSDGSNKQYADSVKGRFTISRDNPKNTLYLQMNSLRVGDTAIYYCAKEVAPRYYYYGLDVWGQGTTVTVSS VL: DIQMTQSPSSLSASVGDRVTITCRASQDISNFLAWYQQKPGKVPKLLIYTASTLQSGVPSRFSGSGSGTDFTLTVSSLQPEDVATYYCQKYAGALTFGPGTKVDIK has what recorded IC50, inhibition of CDC of Daudi cells, 1.66% human serum?
[A] 1.5
